Source: patent US20120135923A1

Listed here: items and their measured Ki.
Molecular target: T1, human melanocortin receptor subtype 1 (hMC1-R) (human, UniProt Q01726 1-317)
T1 construct: whole, on cells; membranes of CHO-K1 cells
T1 sequence (Q01726 whole entry): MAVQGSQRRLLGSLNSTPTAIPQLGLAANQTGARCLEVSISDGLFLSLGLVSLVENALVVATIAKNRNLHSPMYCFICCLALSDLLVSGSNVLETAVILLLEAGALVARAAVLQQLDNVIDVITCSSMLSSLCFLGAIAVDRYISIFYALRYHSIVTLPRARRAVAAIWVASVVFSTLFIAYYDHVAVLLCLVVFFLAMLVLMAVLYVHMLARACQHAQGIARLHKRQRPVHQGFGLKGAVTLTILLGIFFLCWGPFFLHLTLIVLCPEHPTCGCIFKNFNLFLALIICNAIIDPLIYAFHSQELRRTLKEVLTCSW
Test: [125I]-NDP-α-MSH competition, membranes
Bridge positions count the residues as written; N and C are the ends. Square brackets hold non-standard residues; d marks the D form. Ends that are not written are not given here. 1Nal = N[C@@H](Cc1cccc2ccccc12)C(=O)O; 2Nal = N[C@@H](Cc1ccc2ccccc2c1)C(=O)O; d2Nal = N[C@H](Cc1ccc2ccccc2c1)C(=O)O; βAla = NCCC(=O)O
Write your answer as a measured quantity: the number, then the unit.

Quick one: Ki of Ac-CEH[d2Nal]R[2Nal]ACPPKD[βAla]RRRRRRQRRR-NH2 (disulfide 1-8) [Ac-c(Cys-Glu-His-D-2-Nal-Arg-2-Nal-Ala-Cys)-Pro-Pro-Lys-Asp-β-[…]NH2] ? 3.65 nM

Quick one: Ki of RGCEH[dF]RWC-NH2 (disulfide 3-9; also: hydantoin ring from C(O) with Arg1-Gly2) [Hydantoin(C(O)-(Arg-Gly))-c(Cys-Glu-His-D-Phe-Arg-Trp-Cys)-NH2] ? 8.59 nM

Quick one: Ki of Ac-CEH[d2Nal]R[1Nal]ACPPKD[βAla]RRRRRQRRR-NH2 (disulfide 1-8) [Ac-c(Cys-Glu-His-D-2-Nal-Arg-1-Nal-Ala-Cys)-Pro-Pro-Lys-Asp-β-[…]NH2] ? 2.42 nM
